meta.source: ChEMBL document CHEMBL6127112

tested-on: Angiotensin-converting enzyme 2 (Homo sapiens)
Sequence (Q9BYF1 whole entry): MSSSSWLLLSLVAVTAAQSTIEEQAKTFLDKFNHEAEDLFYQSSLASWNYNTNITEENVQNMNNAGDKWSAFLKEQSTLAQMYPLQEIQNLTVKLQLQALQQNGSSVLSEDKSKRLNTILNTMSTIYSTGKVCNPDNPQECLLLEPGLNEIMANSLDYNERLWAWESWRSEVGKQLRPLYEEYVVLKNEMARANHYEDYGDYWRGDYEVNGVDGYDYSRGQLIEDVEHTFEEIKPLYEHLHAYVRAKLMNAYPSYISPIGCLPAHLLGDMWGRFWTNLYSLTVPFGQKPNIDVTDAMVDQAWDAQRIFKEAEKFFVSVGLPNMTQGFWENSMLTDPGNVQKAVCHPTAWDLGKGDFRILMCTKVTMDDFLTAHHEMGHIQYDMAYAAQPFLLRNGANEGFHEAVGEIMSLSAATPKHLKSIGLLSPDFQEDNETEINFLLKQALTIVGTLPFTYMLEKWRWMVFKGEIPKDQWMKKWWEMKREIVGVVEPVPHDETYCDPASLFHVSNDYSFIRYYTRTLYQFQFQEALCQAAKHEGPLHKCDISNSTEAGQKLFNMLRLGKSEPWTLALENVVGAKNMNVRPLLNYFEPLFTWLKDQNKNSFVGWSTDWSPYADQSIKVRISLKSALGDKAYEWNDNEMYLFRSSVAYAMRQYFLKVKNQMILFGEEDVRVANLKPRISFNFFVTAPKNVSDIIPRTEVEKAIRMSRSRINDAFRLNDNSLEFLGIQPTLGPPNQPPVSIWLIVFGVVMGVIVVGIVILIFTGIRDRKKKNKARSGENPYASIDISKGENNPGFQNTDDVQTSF
metric-name: IC50

Query block: Which IC50 value belongs to `CCN(CC)C(=O)Cn1cc(C(=O)C(=O)Nc2ccc3c(c2)OCCO3)c2ccccc21` ?
Result block: > 100 µM

###

protocol-description: Cytotoxicity against HEK293T cells assessed as reduction in cell viability incubated for 72 hrs by CellTiter 96 non-radioactive cell proliferation assay
Format: toxicity, cell-based, HEK-293T
condition-set: human
metric-name: CC50 at 72 h

molecule-smiles: COc1ccc(NC(=O)C(=O)c2cn(CC(=O)N3CCCCC3)c3ccccc23)cc1OC
CC50 at 72 h: > 200 µM

We now examine a further compound.
Query block: Reported CC50 at 72 h, compound `CCN(CC)C(=O)Cn1cc(C(=O)C(=O)Nc2ccc3c(c2)OCCO3)c2ccccc21` : ____
Result block: > 200 µM

###

Entries and their pIC50 values follow.
tested-on: 20S proteasome
protocol-description: Inhibition of human erythrocyte-derived 20S constitutive proteasome protein using Suc-LLVY-AMC as substrate preincubated for 15 mins followed by substrate addition and measured after 30 mins by multimode plate reader analysis
For clarity, pIC50 is expressed as the negative log10 of concentration in mol/L.

Query block: Request body: readout pIC50, system 20S proteasome, query `CC(=O)c1cccc(NC(=O)C(=O)c2cn(CC(=O)N3CCOCC3)c3ccccc23)c1` . Return the value.
Result block: 4.50

Query block: State its pIC50 on 20S proteasome: `CC[C@@H](C)NC(=O)C(=O)c1cn(CC(=O)N2CCOCC2)c2ccccc12`
Result block: 4.16

Query block: Identify the measured pIC50 of `COc1ccc(NC(=O)C(=O)c2cn(CC(=O)N3CCCCC3)c3ccccc23)cc1OC` for 20S proteasome.
Result block: 4.73

Query block: Item: `O=C(Nc1ccc2c(c1)OCCO2)C(=O)c1cn(CC(=O)N2CCOCC2)c2ccccc12` Test system: 20S proteasome Read-out: pIC50 Value: ?
Result block: 4.39

Query block: Which measured pIC50 belongs to `CCN(CC)C(=O)Cn1cc(C(=O)C(=O)Nc2ccc3c(c2)OCCO3)c2ccccc21` , tested on 20S proteasome?
Result block: 4.91

Query block: Form: Entry = `COc1ccc(NC(=O)C(=O)c2cn(CC(=O)N3CCOCC3)c3ccccc23)cc1OC` | System = 20S proteasome | pIC50 = ____
Result block: 3.97

###

tested-on: 20S proteasome (Homo sapiens) (UniProt P49721+P20618+P28074+P28062+P28065+P28072+P25786+P25787+P25788+P25789+P28066+P60900+O14818+Q8TAA3+P40306+A5LHX3+P49720+P28070+Q99436)
protocol-description: Inhibition of human erythrocyte-derived 20S constitutive proteasome protein using Suc-LLVY-AMC as substrate preincubated for 15 mins followed by substrate addition and measured after 30 mins by multimode plate reader analysis
condition-set: time 45.0 min
Calls of active or inactive are those of the source. No cut-off for these calls is given here.
// one of true (active), false (inactive), no free text

molecule-smiles: O=C(Nc1ccccc1-c1ccccc1)C(=O)c1cn(CC(=O)N2CCOCC2)c2ccccc12
assigned-category: false

Query block: Status in this test for `Cc1ccc(NC(=O)C(=O)c2cn(CC(=O)N3CCOCC3)c3ccccc23)c(C)c1` ?
Result block: false

Query block: Assay outcome for `COc1cc(NC(=O)C(=O)c2ccn(Cc3ccccc3)c2)cc(OC)c1` : what was it?
Result block: false

Query block: For this molecule, state the assay outcome: `O=C(Nc1ccc2c(c1)OCCO2)C(=O)c1cn(Cc2ccc(Cl)cc2)c2ccccc12`
Result block: false

Query block: Can you look up the reported call for `CC(=O)Nc1ccc(NC(=O)C(=O)c2cn(CC(=O)N3CCOCC3)c3ccccc23)cc1` for me?
Result block: false

Query block: Could you please tell me the result logged for `COc1ccc(NC(=O)C(=O)c2cn(CC(=O)N3CCOCC3)c3ccccc23)cc1OC` in this assay?
Result block: true
